Entry source: PubChem BioAssay (NCATS)

Give measured activation for each item. Keep answers brief.
Study System: Cellular tumor antigen p53 (Homo sapiens)
Method Notes: Primary qHTS for small molecule compounds that upregulate eGFP-tagged delta133p53alpha (in N-terminal) cells. (AID 2060322);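 note: cells pre-induced with doxycycline then dosed without doxycycline; series mostly up to about 56 µM; 0% = DMSO vehicle and 100% = reference activator; nearly all actives have a fitted effect of over 75% in size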
Conditions Used: NCI-H358 eGFP-delta133p53alpha fluorescence, 24 h; hits give high values
Inconclusive results are not listed. Calls of active or inactive are those of the source. Calls come from the whole dose curve; as a rule, active = well fitted activation curve with a large enough effect; inconclusive = small, poorly fitted or top-dose-only effect; inactive = no such curve, though single readings can be large or run the other way.

Problem: What value of activation has been reported for the following compound? C=C(C)C1Cc2c(ccc3c2OCC(c2ccc(O)cc2O)C3)O1 (stereo not given)
Result: 32.1% (inactive)

Problem: Need activation, item CN1CCN(S(=O)(=O)c2ccc(-c3cnc(N)c(C(=O)Nc4cccnc4)n3)cc2)CC1
Result: -18.8% (inactive)

Problem: Any idea what activation was measured for C[N+]1(CC2COC(c3ccccc3)(C3CCCCC3)O2)CCCCC1 (stereo not given) ?
Result: 10.9% (inactive)

Problem: Item under review: CC(C)=C/C=C\[C@H](C)[C@H]1CC[C@]2(C)C[C@@H]3C(C)=CC(=O)C3/C(CO)=C\C[C@@H]12 (stereo not given in full) . Reported activation?
Result: -9.92% (inactive)

Problem: Returns the measured activation for the input compound. Input: COC(=O)C1(O)C(OC(C)=O)CCC2C3(CC(c4ccoc4)OC3=O)C(C)=CCC21C(=O)OC (stereo not given)
Result: 9.82% (inactive)
